target: T1, human transferrin receptor (human, UniProt P02786 89-760); assay: SPR off-rate
T1 construct: also called huTfR; hTfR
T1 sequence (P02786 89-760 limits assumed): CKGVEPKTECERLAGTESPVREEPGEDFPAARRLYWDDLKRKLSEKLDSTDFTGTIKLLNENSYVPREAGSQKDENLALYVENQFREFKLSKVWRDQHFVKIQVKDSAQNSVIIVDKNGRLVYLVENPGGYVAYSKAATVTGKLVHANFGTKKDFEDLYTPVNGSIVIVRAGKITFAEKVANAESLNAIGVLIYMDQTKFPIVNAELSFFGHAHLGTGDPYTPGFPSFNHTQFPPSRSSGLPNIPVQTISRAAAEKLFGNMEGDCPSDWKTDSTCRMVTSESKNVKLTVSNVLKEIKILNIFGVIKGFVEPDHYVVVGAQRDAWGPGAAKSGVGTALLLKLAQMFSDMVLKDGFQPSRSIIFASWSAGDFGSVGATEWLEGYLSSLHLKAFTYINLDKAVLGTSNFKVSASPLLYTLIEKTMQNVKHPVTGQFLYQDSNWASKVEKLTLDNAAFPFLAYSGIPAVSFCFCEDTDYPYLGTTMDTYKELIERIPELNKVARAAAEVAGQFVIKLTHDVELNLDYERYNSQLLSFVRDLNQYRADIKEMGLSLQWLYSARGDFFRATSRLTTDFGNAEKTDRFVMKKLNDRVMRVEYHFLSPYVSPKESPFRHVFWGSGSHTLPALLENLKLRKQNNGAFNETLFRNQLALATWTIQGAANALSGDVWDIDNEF
The label depends only on koff: met if it is at least 0.0004 s⁻¹, not met if it is smaller.

clone 494 VH 4 / VL 1 (antibody, V domains shown) VH: QVQLVQSGAEVKKPGSSVKVSCKASGFNIKDTYIHWVIQAPGQGLEWMGRIDPANGDTKSDPKFQGRVTITADESTSTAYMELSSLRSEDTAVYYCVRDYLYPYYFDFWGQGTTVTVSS VL: KIQMTQSPSSLSASVGDRVTITCRASESVDTYVSWYQQKPGKAPKLLIYGASNRYTGVPSRFSGSGSGTDFTLTISSLQPEDFADYYCGQTYNYPLTFGQGTKLEI; met
clone 494 VH 0 (mu) / VL 4 (antibody, V domains shown) VH: EVQLQQSGAVLVKPGASVKLSCPASGFNIKDTYIHWVIQRPEQGLEWIGRIDPANGDTKCDPKFQVKATITADTSSNTAYLQLSSLTSEDTAVYFCVRDYLYPYYFDFWGQGTTLTVSS VL: KIVLTQSPGTLSLSPGERATLSCRASESVDTYVSWYQQKPGQAPRLLIYGASNRYTGIPDRFSGSGSGTDFTLTISRLEPEDFADYYCGQTYNYPLTFGQGTKLEI; met
clone 494 VH 1 / VL 0 (mu) (antibody, V domains shown) VH: QVQLVQSGAEVKKPGASVKVSCKASGFNIKDTYIHWVIQAPGQGLEWMGRIDPANGDTKSDPKFQVRVTITADTSTSTVYMELSSLRSEDTAVYYCVRDYLYPYYFDFWGQGTTVTVSS VL: KIVMTQSPKSMSMSVGERVTLNCRASESVDTYVSWYQQKPEQSPELLIYGASNRYTGVPDRFTGSGSATDFTLTISSVQAEDLADYYCGQTYNYPLTFGAGTKLELKR; not met
clone 494 VH 0 (mu) / VL 1 (antibody, V domains shown) VH: EVQLQQSGAVLVKPGASVKLSCPASGFNIKDTYIHWVIQRPEQGLEWIGRIDPANGDTKCDPKFQVKATITADTSSNTAYLQLSSLTSEDTAVYFCVRDYLYPYYFDFWGQGTTLTVSS VL: KIQMTQSPSSLSASVGDRVTITCRASESVDTYVSWYQQKPGKAPKLLIYGASNRYTGVPSRFSGSGSGTDFTLTISSLQPEDFADYYCGQTYNYPLTFGQGTKLEI; not met
clone 494 VH 3 / VL 1 (antibody, V domains shown) VH: QVQLVQSGAEVKKPGASVKVSCKASGFNIKDTYIHWVIQAPGQGLEWMGRIDPANGDTKSDPKFQGRVTITADTSTSTVYMELSSLRSEDTAVYYCVRDYLYPYYFDFWGQGTTVTVSS VL: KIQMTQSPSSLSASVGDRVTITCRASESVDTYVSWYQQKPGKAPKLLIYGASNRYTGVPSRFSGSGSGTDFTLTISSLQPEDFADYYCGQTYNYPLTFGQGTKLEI; met
